Kindly supply the reported IC50 values for the records listed here.
# METHOD: in vitro
# APPLIED_CONDITIONS: rat, IC50 Cytotox. L6
# Experimental: Drug stock solutions (10mg/ml) were in DMSO (100%). […] Selectivity index (SI) was calculated as IC50 L6 cells/IC50 parasite.

CN/C(=N/CCSCc1nc[nH]c1C)NC#N [Cimetidine] :: 302 µM

Lab note: each compound below needs its IC50 filled in.
1. Fc1ccc([C@@H]2CCNC[C@H]2COc2ccc3c(c2)OCO3)cc1 [Paroxetine]
2. Clc1ccc2c(c1)C(N1CCNCC1)=Nc1ccccc1O2 [Amoxapine]

["13.8 µM", "16.2 µM"]

Lab note: each compound below needs its IC50 filled in.
1. Nc1ccc(S(=O)(=O)c2ccc(N)cc2)cc1 [Dapsone]
2. Nc1nc(O)c2ncn(COC(CO)CO)c2n1 [Ganciclovir]
3. CN(C)CCCN1c2ccccc2CCc2ccc(Cl)cc21 [Clomipramine]

1: 204 µM; 2: 179 µM; 3: 19.8 µM
